All values here come from PubChem BioAssay AID2753.

# TESTED_ON: ATP-sensitive inward rectifier potassium channel 1 (Homo sapiens) (UniProt P48048)
# Sequence (P48048 whole entry, looked up): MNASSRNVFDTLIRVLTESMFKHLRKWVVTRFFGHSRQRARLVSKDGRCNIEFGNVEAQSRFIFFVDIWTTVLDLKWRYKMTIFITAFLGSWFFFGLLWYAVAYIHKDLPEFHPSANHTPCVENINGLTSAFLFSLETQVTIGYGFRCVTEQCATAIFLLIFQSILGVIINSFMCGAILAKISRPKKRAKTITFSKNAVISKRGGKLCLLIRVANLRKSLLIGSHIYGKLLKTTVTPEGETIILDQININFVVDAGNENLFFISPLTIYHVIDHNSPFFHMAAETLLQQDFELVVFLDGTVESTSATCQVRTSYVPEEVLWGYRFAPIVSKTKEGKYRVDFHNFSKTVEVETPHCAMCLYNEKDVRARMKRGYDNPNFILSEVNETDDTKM
# METHOD_NOTES: ROMK channel inhibitor potency, dose response, cell-based, thallium flux, HEK293 (AID 2753)
# RUN_CONDITIONS: fluorescence
The source made the active and inactive calls. How the calls were made is not given here.
OUTCOME_MEASURE: IC50

Recorded IC50, per entry:
COMPOUND: COc1cc(/C=C(\C#N)C(N)=O)ccc1OS(=O)(=O)c1ccc(C)cc1
REPORTED_VALUE: 31 µM
//
COMPOUND: COC(=O)[C@@]1(Cc2ccccc2)[C@@H]2C(=CC(=O)[C@H]2CC(=O)C(=O)N(C)C)CN1C(=O)c1ccccc1
REPORTED_VALUE: 81 µM
//
COMPOUND: O=[N+]([O-])c1ccc(S(=O)(=O)N2CCN(Cc3c[nH]c4ccccc34)CC2)cc1
REPORTED_VALUE: inactive
//
COMPOUND: CSc1ccc(/C=C(\C#N)C(=O)NC2CCCCC2C)cc1 (stereo not given)
REPORTED_VALUE: 3.24 µM

Indicate the recorded IC50 value for this compound: `CN(C)CCNC(=O)/C(=C/c1ccc(-c2ccc(Cl)cc2)o1)NC(=O)c1ccccc1`
inactive

// Input: `CNC(=O)c1nnsc1S(=O)(=O)c1ccc(Cl)cc1` . Output its IC50 only.
7.46 µM

Determine from records and report IC50 for `CN(C)c1nc(C=C(C#N)C#N)c(Cl)n1-c1ccc(F)cc1`
2.98 µM

Return reported IC50. Input compound: `COC(=O)Cn1cc(/C=C/[N+](=O)[O-])c2ccccc21`
63 µM

Note down IC50 recorded for `O=C1CCCCCN1Sc1ccccc1`
4.49 µM

Input COc1ccc(CNCC(O)COc2ccc(C)cc2[N+](=O)[O-])cc1 (stereo not given) , output reported IC50.
inactive
